Experiment: soluble on expression in E. coli; label from the status in PepcDB or PDB records
Recorded Metric: soluble on expression in E. coli

Macromolecule Sequence | Reading
MDVSLESLVNSLQATRSTLLSEIEMLNDTEVNVKPRRDKWSIIQILHHLHLVEQSVTSALVYALQKNERNMTPFKDLQLTLDRTHKREAPQQMQPTETLMKKQQGIQLLEHSRQELLHALHSVIDEKDLFENGLKHPVFNDLNLYQWVQFLDLHEQRHLTQLKEAKHAILQR | not soluble
MTNPQFAGHPFGTTVTAETLRNTFAPLTQWEDKYRQLIMLGKQLPALPDELKAQAKEIAGCENRVWLGYTVAENGKMHFFGDSEGRIVRGLLAVLLTAVEGKTAAELQAQSPLALFDELGLRAQLSASRSQGLNALSEAIIAATKQV | not soluble
MGYNKPAAWKPLDRTDWDVSFSYAYGYDEAQFGGRLAVDGDVSTTWFTWGVVSAGECWWATTLPAPTHLTGFSLTRQTTFGSSYNVREAKVKVKKEGDTEWTEAGLFRFGSFKGNDPQYAVFIPAVENVKEFRIDIVSPADFTGFAELDLYQLEHHHHHH | soluble
MLLVSGCSGELYSSHTHSLRWFCQSPEGCEREAEVKALARVLLYTDTFTLYTDYGQFAVDFVQRVPSDELPRECDALYGLSLFGHELESSTLCSVGGDAYEMRISVPNRNPSSASEWLAEMRPL | not soluble
SDEFVNLKETELRLGLPGTDNVCEAKERVSCCNNNNKRVLSTDTEKEIESSSRKTETSPPRKAQIVGWPPVRSYRKNNIQSKKNESEHEGQGIYVKVSMDGAPYLRKIDLSCYKGYSELLKALEVMFKFSVGEYFERDGYKGSDFVPTYEDKDGDWMLIGDVPWEMFICTCKRLRIMKGSEAKGLGCGV | soluble

Lookup result for MGSDKIHHHHHHMKLYELAMTPSARRVNIFLKELGLNEQELGLERESLNLRAGDNLSDEFKAISVNGRIPVLELDDGQTLCESVAICRYFDEIITSAHSLFGDTPLEKAQVEMWQRICELQGLFVAFQAFRNITKVYEDRERCVEAWGQESRQRVIEFLPTLEKQLGQQPFVAGQNFSIADITAYVMMSFIKHLEITPSDDQPHLTAWLTKMEQRPSIIAVNG ; measured soluble on expression in E. coli: not soluble

Lookup result for MGSDKIHHHHHHETENVNCGQVLAGDTAYLKTVTGEYRIKIAENESLNMSCEAVMDRILSRDHVLRPLENGVAFARVVYMDYELIEKHVEMSYHPQNSFCFAIDKKAAKEFKERMQAMASCLPNVLLLPGRFFKNPIHDLSVDSHGHNTNLAHYNCLRALINKPGWNYAILLQNHDLITKSVYELEKIFNWLGGANDVAIRPELGRLDKKHFKWDPMSLKLFRNESEIDPVILNTTLKFAKGAVQSSLSRAAVDWMTRTVDLTTFIDQWNHGTYGVDEQFTQAFQISDFLGMPGHFTDKCIKKGIITEGITRFAQWTHGDQSKCASKKSRHGICIMGIEHLSMMAKSEHLMFNKVLPLFDYSIIECTAE ; measured soluble on expression in E. coli: not soluble

* * *

Experiment: soluble on expression in E. coli; label from the status in PepcDB or PDB records
Recorded Metric: soluble on expression in E. coli

Macromolecule Sequence | Reading
APYRYLAAGAADVISNLSAVKDWKLAHRLKGEEFSSSAAAMSEYSAQEVLSQINEIKKYEESSVWLVTKNILASGTAMAIAGNSRPGSGSEHLFAHALEAAGVENMLHGEMCAMGTVISMYLHDENWQQIKEAFDNLGISIRSRDYGIEDEIVINALRTAHAIRPERYTILGESDMSYDAAVKALELTGI | not soluble
SQSLGDRQRDNEKIDKMQQILRSVNAGIEDKGKVIARYTDVIKQELLINQDGTVAKTFEGEQLAQNEAFTLNTRNAFKSAANDPSISLPLYIAEIEGQKK | not soluble
MSLNGSRRIPQPIRWAMVGGGSQSQIGYIHRCAALRDNTFVLVAGAFDIDPIRGSAFGEQLGVDSERCYADYLSMFEQEARRADGIQAVSIATPNGTHYSITKAALEAGLHVVCEKPLCFTVEQAENLRELSHKHNRIVGVTYGYAGHQLIEQAREMIAAGELGDVRMVHMQFAHGFHSAPVEAQSQATQWRVDPRQAGPSYVLGDVGTHPLYLSEVMLPDLKIKRLMCSRQSFVASRAPLEDNAYTLMEYEGGAMGMVWSSAVNAGSMHGQKIRVIGSRASLEWWDERPNQLSFEVQGQPAQILERGMGYLHPNALIDDRIGGGHPEGLFEAWANLYYRFALAMDATDRSDTQALSAVRYPGIDAGVEGVRWVERCVLSADNDSIWVAYEGHHHHHH | soluble
MRIGELSKETGVSERSLRHYEEKGLLPSKRLANGYRDFDESAIEKVELIQMYLQIGLNLEETARMLRCLEIEPHLYDNPCSSILTLYEDKLNEVTKQITLLSNIQANLQKHVSLLKQAKEKE | not soluble

Lookup result for MGSDKIHHHHHHMRNELPPENAYRILESGPIVLVSTRGADGRANLMTMGFHMMMQHEPPLVGAIIGPWDYSHQALSETGECVLAVPTVDLAETVVDIGNCSGDALDKFGHFGLTPVPAQTVDAPLVRQCWANLECRVVDDGWARRYNLWVLEVQRIWIDTARKETRLIHHQGDGRFSVDGDTLDLGERMTKWRHLMG ; measured soluble on expression in E. coli: not soluble

Lookup result for MLKRCNAKYSCEIIKEKRADGDDRMATIDLQKKSVKIVLEKKQLTKVTARVGLVLDITGSMRPLYKNGTVQNVVERILAVADQFDDNGLLDVWVYDNEFSRLKPVSEKDFSGYVDREILNNDRLHKFGRNDEPPVMKDVLRKYVTEEPSSYPAFIVFINDGGCKKSIKPIIEASSDKPVFWQFVGIGNGNFDFLNKLDTLEGRVIDNTNFLHIEEIDRISDDELYDALLAEFPFWLKEAKEKGIVREQEPPAEKPKKKGFFSRLFSKLEHHHHHH ; measured soluble on expression in E. coli: soluble

Lookup result for MQEVKQWPVKIMLVHPKAPFLKGEKIVIAADCAVLVNRDIRDRFESDAVIIGCPMLEDPRRMFERIKMIVAESDAKLEVYTMEVPCCHALHLMVEKAKEEHGKQTESEKYIVRVSGAVEPYSKKIDESMIEAERRAHRGH ; measured soluble on expression in E. coli: not soluble

* * *

Assay: soluble on expression in E. coli; label from the status in PepcDB or PDB records
Recorded Metric: soluble on expression in E. coli

Macromolecule Sequence | soluble on expression in E. coli
MGSSHHHHHHSSGLVPRGSTSEVIEDEKQFYSKAKTYWKQIPPTVDGMLGGYGHISSIDINSSRKFLQRFLREGPNKTGTSCALDCGAGIGRITKRLLLPLFREVDMVDITEDFLVQAKTYLGEEGKRVRNYFCCGLQDFTPEPDSYDVIWIQWVIGHLTDQHLAEFLRRCKGSLRPNGIIVIKDNMAQEGVILDDVDSSVCRDLDVVRRIICSAGLSLLAEERQENLPDEIYHVYSFALR | soluble
MEAVERAFRALDEGIADYLARKGIRPSCGPGCFACCYGWVTASRLEAQALLPHLTEAQKARVLEEGPRRLALLAREKDDPGFPRRFFLSRSPCPLLEAGLCGVYAHRPLACRGVLTDEDPAYCDPENPHPAPKPHHGPGHFLRVPHRMARRRMEELWEEERAQTGFLVLGELSGLLYLLLTGLPEDREGVEARLEALGVLGGRFGFQVVAAALEHHHHHH | not soluble
MGSDKIHHHHHHMWFKNLQLHRFSAPWSPSADEVEASLAKHAFFPGTSLEMQTQGWASPRDNGQLVHAVGRQMLLTLRTEKKLLPATVVNQVTKARAAEVEEQQGYKPGRKQLRELKEQVTEELLPRAFSIRRDTRVWIDPDNGWLAIDAASTAKADEVRGMLFKALDALPLANLHVNQSPVAAMTDWLSTDVAPAGFTVDQEIELQSGSESKATVRYVRHPLDAEDLRRHISGGKRCTRLAMTWNDRVSFVLTDSLAIKRVAPLDVIKEQADGTVSDEDERFDADFTLMAGELAGMLGDLTEALGGERKA | not soluble
MEITNVNEYEAIAKQKLPKMVYDFYASGAEDQWTLAENRNAFSRILFRPRILIDVTNIDMTTTILGFKISMPIMIAPTAMQKMAHPEGEYATARAASAAGTIMTLSSWATSSVEEVASTGPGIRFFQLYVYKDRNVVAQLVRRAERAGFKAIALTVDTPRLGRREADIKNRFVLPPFLTLKNFEGIDLGKMDKANDSGLSSYVAGQIDRSLSWKDVAWLQTITSLPILVKGVITAEDARLAVQHGAAGIIVSNHGARQLDYVPATIMALEEVVKAAQGRIPVFLDGGVRRGTDVFKALALGAAGVFIGRPVVFSLAAEGEAGVKKVLQMMRDEFELTMALSGCRSLKEISRSHIAADWDGPSSRAVARL | soluble
GSMTQIHQINDIDVHRITSGQVITDLTTAVKELVDNSIDANANQIEIIFKDYGLESIECSDNGDGIDPSNYEFLALKHYTSKIAKFQDVAKVQTLGFRGEALSSLCGIAKLSVITTTSPPKADKLEYDMVGHITSKTTTSRNKGTTVLVSQLFHNLPVRQKEFSKTFKRQFTKCLTVIQGYAIINAAIKFSVWNITPKGKKNLILSTMRNSSMRKNISSVFGAGGMRGLEEVDLVLDLNPFKNRMLGKYTDDPDFLDLDYKIRVKGYISQNSFGCGRNSKDRQFIYVNKRPVEYSTLLKCCNEVYKTFNNVQFPAVFLNLELPMSLIDVNVTPDKRVILLHNERAVIDIFKTTLSDYYNRQELALPK | soluble
MSRGVKRVTAITNREREAVLRIEFPNVDVTDIDFDLFQARESTDKPLDVAAAIAYRLLLGSGLPQKFGCSDEVLLNFILQCRKKYRNVPYHNFYHVVDVCQTIYTFLYRGNVYEKLTELECFVLLITALVHDLDHMGLNNSFYLKTESPLGILSSASGNKSVLEVHHCNLAVEILSDPESDVFGGLEGAERTLAFRSMIDCVLATDMARHSEFLEKYLEIMKTSYNVDDSDHRQMTMDVLMKAGDISNVTKPFDVSRQWAMAVTEEFYRQGDMEKERGVEVLPMFDRSKNMELAKGQIGFIDFVAAPFFQKIVDACLQGMQWTVDRTKSNRAQWERVLEARSTGAS | soluble
MANDGYFEPTQELSDETRDMHRAIISLREELEAVDLYNQRVNACKDKELKAILAHNRDEEKEHAAMLLEWIRRCDPAFDKELKDYLFTNKPIAHE | soluble
GSHMLKEVWEELDGLDPNRFNPKTFFILHDINSDGVLDEQELEALFTKELEKVYDPKNEEDDMREMEEERLRMREHVMKNVDTNQDRLVTLEEFLASTQRKEF | soluble

We next turn to a different sequence, shown below.
Lookup result for STPGPGASAPNSPMALLTLNCEKEMDDVIEDIISLESSYSDDILGFMDAGLQMTNTIPVSANLLDMYSNHALPPAGVSISNSCPSSLPAVKRELSVTPSPGMMHIMDKAGPCGKFDSYQRPDGFPVEVRALAKERQKKDNHNLIERRRRFNINDRIKELGTLIPKSNDPDMRWNKGTILKASVDYIRKLQKEQQNAKELENRQKRLEHANRHLLLRIQELEMQARAHGLTVVASSSLYSAELVARAIKQEPGMGDCTSNLYPHLPSPDMSRPTTLDLNNGTISYNDSPTEDGEPGVYDSPNKASTKLEDMLMDNTLSPVGSSDPLLSSGSPVPSNSSGSSSMDEHDNGC ; measured soluble on expression in E. coli: not soluble
